Test system: anaesthetised dogs
testDescription: Intracavernous and blood pressure recording in dogs
measurementSetup: 30 μg/kg intracavernous
Structures can show the parent of a compound that is named as a salt.
observationType: ICP (mmHg)
# number only, unit mmHg dropped from output

Cc1ccc(N(CC2=NCCN2)c2cccc(O)c2)cc1 [Phentolamine] : 20.0
COc1cc2nc(N3CCN(C(=O)c4ccco4)[C@@H]4CCCC[C@@H]43)nc(N)c2cc1OC [Compound B, hydrochloride] : 49.3

// output ICP; input COc1cc2nc(N3CCN(C(=O)c4ccco4)CC3)nc(N)c2cc1OC [Prazosin] ; system anaesthetised dogs 25.5

// output ICP; input COc1cc2nc(N3CCN(C(=O)COc4c(OC)cccc4C(C)C)CC3)nc(N)c2cc1OC.Cl [Compound A] ; system anaesthetised dogs 91.5
